Target: hGSTM1-1 (Homo sapiens)
Sequence (P09488 2-218 limits assumed): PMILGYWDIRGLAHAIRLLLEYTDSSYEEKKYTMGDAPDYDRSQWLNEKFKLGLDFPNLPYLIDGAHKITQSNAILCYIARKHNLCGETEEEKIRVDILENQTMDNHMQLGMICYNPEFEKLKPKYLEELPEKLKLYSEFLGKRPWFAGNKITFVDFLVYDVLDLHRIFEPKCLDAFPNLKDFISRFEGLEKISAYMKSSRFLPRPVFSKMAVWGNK
Assay: Specific activity / enzyme kinetics of GST towards compounds in presence of GSH
Assay type: biochemical
Conditions: compound 50 µM, 37 °C
Returns one of TRUE or FALSE; TRUE when GSTM1-1 specific activity is >= 100 µmol/mg/min.

# count of solved cases: 6
{"MOLECULE": "CCOC(=O)N1CC(C)N(/[N+]([O-])=N/Oc2ccc([N+](=O)[O-])cc2[N+](=O)[O-])CC1C (centres unmarked)", "GROUP LABEL": "FALSE"}
{"MOLECULE": "CCOC(=O)N1CCN(/[N+]([O-])=N/Oc2ccc([N+](=O)[O-])cc2[N+](=O)[O-])C(C)C1 (centres unmarked)", "GROUP LABEL": "TRUE"}
{"MOLECULE": "CCOC(=O)N1CCN(/[N+]([O-])=N/Oc2ccc([N+](=O)[O-])cc2[N+](=O)[O-])CC1C (centres unmarked)", "GROUP LABEL": "TRUE"}
{"MOLECULE": "CCCOC(=O)N1CCN(/[N+]([O-])=N/Oc2ccc([N+](=O)[O-])cc2[N+](=O)[O-])CC1", "GROUP LABEL": "TRUE"}
{"MOLECULE": "CCOC(=O)N1CCN(/[N+]([O-])=N/Oc2ccc([N+](=O)[O-])cc2[N+](=O)[O-])CC1", "GROUP LABEL": "TRUE"}
{"MOLECULE": "CCOC(=O)N1C(C)CN(/[N+]([O-])=N/Oc2ccc([N+](=O)[O-])cc2[N+](=O)[O-])CC1C (centres unmarked)", "GROUP LABEL": "TRUE"}

Problem: Quick check, GSTM1-1 specific activity >= 100 µmol/mg/min? "CCOC(=O)N1CCCN(/[N+]([O-])=N/Oc2ccc([N+](=O)[O-])cc2[N+](=O)[O-])CC1"
Result: FALSE

---

Target: hGSTA1-1 (Homo sapiens)
Sequence (P08263 whole entry): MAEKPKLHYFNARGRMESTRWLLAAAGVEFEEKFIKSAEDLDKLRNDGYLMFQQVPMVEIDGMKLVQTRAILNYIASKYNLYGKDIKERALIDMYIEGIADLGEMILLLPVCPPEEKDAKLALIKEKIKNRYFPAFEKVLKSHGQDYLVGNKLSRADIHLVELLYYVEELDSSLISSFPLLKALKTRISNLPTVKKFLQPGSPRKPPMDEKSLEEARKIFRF
Assay: Specific activity / enzyme kinetics of GST towards compounds in presence of GSH
Format: biochemical
Conditions: compound 50 µM, 37 °C
Measured GSTA1-1 specific activity of individual entries
Numbers only here, please. The scale is µmol/mg/min.

Some solved entries appear below for comparison.
{"COMPOUND": "CCCOC(=O)N1CCN(/[N+]([O-])=N/Oc2ccc([N+](=O)[O-])cc2[N+](=O)[O-])CC1", "GSTA1-1 specific activity (µmol/mg/min)": 59.0}
{"COMPOUND": "CCOC(=O)N1CCN(/[N+]([O-])=N/Oc2ccc([N+](=O)[O-])cc2[N+](=O)[O-])CC1C (centres unmarked)", "GSTA1-1 specific activity (µmol/mg/min)": 55.5}
{"COMPOUND": "CCOC(=O)N1C(C)CN(/[N+]([O-])=N/Oc2ccc([N+](=O)[O-])cc2[N+](=O)[O-])CC1C (centres unmarked)", "GSTA1-1 specific activity (µmol/mg/min)": 70.3}
{"COMPOUND": "CCOC(=O)N1CCCN(/[N+]([O-])=N/Oc2ccc([N+](=O)[O-])cc2[N+](=O)[O-])CC1", "GSTA1-1 specific activity (µmol/mg/min)": 16.8}

Problem: // Input: CCOC(=O)N1CC(C)N(/[N+]([O-])=N/Oc2ccc([N+](=O)[O-])cc2[N+](=O)[O-])CC1C (centres unmarked) . Output its GSTA1-1 specific activity only.
Result: 17.6

Problem: Supply measured GSTA1-1 specific activity of "COC(=O)N1CCN(/[N+]([O-])=N/Oc2ccc([N+](=O)[O-])cc2[N+](=O)[O-])CC1" in your reply.
Result: 45.1

Problem: Give a short answer stating reported GSTA1-1 specific activity for "CCOC(=O)N1CCN(/[N+]([O-])=N/Oc2ccc([N+](=O)[O-])cc2[N+](=O)[O-])CC1" .
Result: 66.3

Problem: State, in one line, measured GSTA1-1 specific activity of CCOC(=O)N1CCN(/[N+]([O-])=N/Oc2ccc([N+](=O)[O-])cc2[N+](=O)[O-])C(C)C1 (centres unmarked)
Result: 47.0

Ref: paper PMC2631660
